Test system: RPS6KA4(Kin.Dom.2-C-terminal);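 further: KINOMEscan kinase panel screen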
Conditions: concentration: 1 μM, replicates: in singlicate; n = 1
Reported %Inh values follow for various molecules
measure.name: %Inh (%)

| molecule | target.or.system | test.result |
| --- | --- | --- |
| Nc1nc(-c2ccccc2F)c(-c2ccnc3ccccc23)s1 [GW560459] | RPS6KA4(Kin.Dom.2-C-terminal) | 0 |
| CCCC(=O)Nc1n[nH]c2ncc(-c3cccc4ccccc34)cc12 [SB-642057] | RPS6KA4(Kin.Dom.2-C-terminal) | 0 |
| COc1cc2nccc(Nc3ccc(OCc4ccc(NC(C)=O)cc4)cc3)c2cc1OC.Cl [GW440135] | RPS6KA4(Kin.Dom.2-C-terminal) | 0 |
| O=C1NC(=O)C(c2ccccc2)=C1Nc1cccc(O)c1 [SB-390534] | RPS6KA4(Kin.Dom.2-C-terminal) | 7 |
| O=c1cc(N2CCOCC2)nc2n(Cc3ccc(F)c(Cl)c3)ccn12 [GSK2297099] | RPS6KA4(Kin.Dom.2-C-terminal) | 0 |
| Cn1c(=O)c(F)c(Nc2ccc(I)cc2F)c2c(=O)n(OC[C@H](O)CO)cnc21 | RPS6KA4(Kin.Dom.2-C-terminal) | 0 |
| FC(F)(F)c1ccc(-c2ncn(CCCN3CCOCC3)c2-c2ccncc2)cc1 [SB-217780] | RPS6KA4(Kin.Dom.2-C-terminal) | 11 |
| COc1cccc(-n2cnc3c(N)ncnc32)c1 [SKF-97416] | RPS6KA4(Kin.Dom.2-C-terminal) | 7 |
| CCC(=O)c1c(-c2ccccc2)c2cc(Cl)ccc2c(=O)n1Cc1cc(S(C)(=O)=O)n(CCC(C)(C)O)n1 | RPS6KA4(Kin.Dom.2-C-terminal) | 12 |
